The values you see were collected from patent US5684034A.

- TEST_SYSTEM: recombinant human secreted phospholipase A2 (Homo sapiens)
- TEST_NAME: Human secreted phospholipase A2 inhibition test (chromogenic assay, diheptanoyl thio-PC substrate)
- Assay type: biochemical
- RECORDED_CONDITIONS: Inhibition of human secreted PLA2 IC50 ± mean deviation (3-5 tests), pH 7.5, 40° C., 30 minutes, 405 nm
pIC50: −log10 of the molar value. Where a name gives a salt, the structure may show the parent alone.
Please note: True applies when pIC50 is 6 or greater, and False applies otherwise.

1. CCOP(=O)(COc1cccc2c1c(CC(N)=O)c(C)n2Cc1ccccc1)OCC: False
2. COP(=O)(O)CCCOc1ccc2c(c1)c(CC(N)=O)c(Br)n2Cc1ccccc1: True
3. NC(=O)Cc1c(C2CC2)n(Cc2ccccc2)c2ccc(OCCCP(=O)(O)O)cc12: True
4. CCOC(=O)CCCCOc1ccc2c(CC(N)=O)c(C)n(Cc3ccccc3)c2c1: True
5. COc1ccc2c(c1)c(CC(N)=O)c(SC)n2Cc1ccccc1: True
6. CCc1c(CC(N)=O)c2cc(OCCCP(=O)(O)OC)ccc2n1Cc1ccccc1: True
7. NC(=O)Cc1c(Cl)n(Cc2ccccc2)c2ccc(OCCCC(=O)O)cc12: True
8. CSc1c(CC(N)=O)c2cc(OCCCC(N)=O)ccc2n1Cc1ccccc1: True
9. Cc1c(CC(N)=O)c2c(O)cccc2n1Cc1ccccc1: False
10. Cc1c(CC(N)=O)c2cc(OCc3ccccc3C(=O)O)ccc2n1Cc1ccccc1: True
11. CSc1c(CC(N)=O)c2cc(OCCCC(=O)O)ccc2n1Cc1ccccc1: True
12. Cc1c(CC(N)=O)c2c(OCC(=O)O)cccc2n1Cc1cccc(Cl)c1 [Example 72, sodium salt]: True
13. Cc1c(CC(N)=O)c2cc(OCCC(=O)O)ccc2n1Cc1ccccc1: True
14. CCc1c(CC(N)=O)c2cc(OCCCP(=O)(OC)OC)ccc2n1Cc1ccccc1: True
15. COP(=O)(CCCOc1ccc2c(c1)c(CC(N)=O)c(Br)n2Cc1ccccc1)OC: True
16. Cc1c(CC(N)=O)c2cc(NCCC(=O)O)ccc2n1Cc1ccccc1: False

###

- TEST_SYSTEM: recombinant human secreted phospholipase A2 (Homo sapiens, UniProt P14555)
- TEST_NAME: Human secreted phospholipase A2 inhibition test (chromogenic assay, diheptanoyl thio-PC substrate)
- Type: biochemical
- RECORDED_CONDITIONS: pH 7.5, 40° C., 30 minutes, 405 nm; read-out: Inhibition of human secreted PLA2 IC50 ± mean deviation (3-5 tests)
- Method: The following chromogenic assay procedure was used to identify and evaluate inhibitors of recombinant human secreted phospholipase A2. The assay described herein has been adapted for high volume screening using 96 well microtiter plates. A measured volume of racetic dipheptanoyl thio PC supplied in chloroform at a concentration of 100 mg/ml is taken to dryness and redissolved in 10 millimolar TRITON X-100™ nonionic detergent aqueous solution. […]
Consider the following molecules and their measured IC50 readings.
VALUE_TYPE: IC50 (nM)

1. CCCCCCCCCCn1c(C)c(CC(N)=O)c2cc(OCCCC(=O)O)ccc21: 680
2. CCOC(=O)CCCOc1ccc2c(c1)c(CC(N)=O)c(CC)n2Cc1ccccc1: 1270
3. Cc1c(CC(N)=O)c2cc(OCCCCC(=O)O)ccc2n1Cc1ccccc1: 920
4. Cc1c(CC(N)=O)c2cc(Oc3ccccc3)ccc2n1Cc1ccccc1: 1010

###

- TEST_SYSTEM: recombinant human secreted phospholipase A2 (Homo sapiens, UniProt P14555)
- Sequence (P14555 21-144): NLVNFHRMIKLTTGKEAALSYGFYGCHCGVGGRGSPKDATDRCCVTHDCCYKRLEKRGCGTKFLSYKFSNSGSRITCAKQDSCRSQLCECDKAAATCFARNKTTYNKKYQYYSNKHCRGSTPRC
- TEST_NAME: Human secreted phospholipase A2 inhibition test (chromogenic assay, diheptanoyl thio-PC substrate)
- Assay type: biochemical
- RECORDED_CONDITIONS: pH 7.5, 40° C., 30 minutes, 405 nm; read-out: Inhibition of human secreted PLA2 IC50 ± mean deviation (3-5 tests)
pIC50: −log10 of the molar value. Structures can show the parent of a compound that is named as a salt.
VALUE_TYPE: pIC50

1) Cc1c(CC(N)=O)c2cc(OCCCS(=O)(=O)O)ccc2n1Cc1ccccc1: 6.71
2) CCCCCCn1c(C)c(CC(N)=O)c2cc(OCCCC(=O)O)ccc21: 5.61
3) NC(=O)Cc1cn(Cc2ccccc2)c2ccc(O)cc12: 5.43
4) Cc1c(CC(N)=O)c2c(OCC(N)=O)cccc2n1Cc1ccccc1: 6.44
5) CCOC(=O)CCCOc1ccc2c(c1)c(CC(N)=O)c(SC)n2Cc1ccccc1: 5.81
6) Cc1c(CC(N)=O)c2cc(N)ccc2n1Cc1ccccc1: 5.79
7) CCOC(=O)CCCOc1ccc2c(CC(N)=O)c(C)n(Cc3ccccc3)c2c1: 6.35
8) Cc1c(CC(N)=O)c2cc(OCc3cccc(C(=O)O)c3)ccc2n1Cc1ccccc1: 5.72
9) Cc1c(CC(N)=O)c2ccc(OCCCCC(=O)O)cc2n1Cc1ccccc1: 5.10
10) COC(=O)COc1cccc2c1c(CC(N)=O)c(C)n2Cc1cccc(Cl)c1: 5.63
11) CCc1c(CC(N)=O)c2cc(OCCCP(=O)(O)O)ccc2n1Cc1cccc(Cl)c1: 7.80
12) COc1ccc2c(c1)c(CC(N)=O)c(C1CC1)n2Cc1ccccc1: 6.47
13) CCc1c(CC(N)=O)c2cc(OCCCC(=O)NN)ccc2n1Cc1ccccc1: 7.13
14) CCc1c(CC(N)=O)c2c(OCC(=O)O)cccc2n1Cc1cccc(Cl)c1: 7.41
15) CCc1c(CC(N)=O)c2cc(OCc3ccccc3C(=O)O)ccc2n1Cc1ccccc1: 6.27
16) COc1cccc2c1c(CC(N)=O)c(C)n2Cc1ccccc1: 5.63
17) CCOC(=O)COc1ccc2c(c1)c(CC(N)=O)c(C)n2Cc1ccccc1: 6.10
18) COc1ccc2c(c1)c(CC(N)=O)c(C)n2Cc1c(Cl)cccc1Cl: 5.89
19) COc1ccc2c(c1)c(CC(N)=O)c(C)n2Cc1cccc(Cl)c1: 5.86
20) COc1cc2c(CC(N)=O)c(Br)n(Cc3ccccc3)c2cc1Cl: 6.92
21) COC(=O)CCNc1ccc2c(c1)c(CC(N)=O)c(C)n2Cc1ccccc1: 5.48
22) NC(=O)Cc1c(Br)n(Cc2ccccc2)c2cc(Cl)c(O)cc12: 7.05
23) COc1ccc2c(c1)c(CC(N)=O)c(Cl)n2Cc1ccccc1: 6.60
24) Cc1c(CC(N)=O)c2cc(OCc3ccccc3)ccc2n1Cc1ccccc1: 6.04
25) Cc1c(CC(N)=O)c2c(OCC(=O)O)cccc2n1Cc1ccccc1-c1ccccc1 [Example 73, sodium salt]: 8.00
